Reported Ratio with respect to Non-Coating by item:
subject of test: T1, CRD1-3
T1 construct: also called fragmented human CD137-Fc fusion protein CRD1-3
method notes: ELISA, coated CD137-Fc protein 2 µg/mL, antibody 10 or 5 µg/mL; absorbance 620 nm divided by that of the uncoated well
Form rule: numeric answer, no unit written next to it.

R3 (antibody, V domains shown, Naive library clone; Fab on phage in the phage ELISA) VH: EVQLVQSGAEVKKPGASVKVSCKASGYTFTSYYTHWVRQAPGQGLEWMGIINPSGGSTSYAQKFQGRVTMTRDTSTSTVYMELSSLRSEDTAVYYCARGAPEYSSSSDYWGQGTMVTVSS VL: QSALTQPASVSGSPGQSITISCTGTSSDVGGYNFVSWYQQHPGKAPKLMIYDVSKRPSGVSTRFSGSKSGNTASLTISGLQAEDEADYYCNSYTTSSTRWMFGGGTKVTVL : 18.4

Now, please, on to the next binder.
### Prompt Any idea what Ratio with respect to Non-Coating was measured for R2 (antibody, V domains shown, Naive library clone; Fab on phage in the phage ELISA) VH: EVQLQESGPGLVKPSETLSLTCTVSGGSISSSSYYWGWIRQPPGKGLEWIGSIHYTGSTYYNPSLKSRVTISVDTSKNQFSLKLSSVTAADTAVYYCARLNPSIAARPGAFDIWGQGTMVTVSS VL: QSVLTQPPSVSAAPGQKVTISCSGSSSNIANNFVSWFQQLPGTAPKLLIYDNNKRPSGIPDRFSGSKSGTSATLGITGLQTGDEADYYCGTWDRSLSAGVFGGGTKVTVL ?
### Response 1.1
